Value source: patent US20120232062A1

System: HCV genotype 1b
experimental details: HCV 1b replicon luciferase assay
Assay type: cell-based
experimental conditions: Hepatitis C virus, Huh-7, 48 h, Table 1; Huh7 HCV 1b replicon, luciferase reporter, 48 hours; read-out: 1b EC50
assay endpoint: log10 of EC50 (log10 of the value in µM)
Record value = log10 of EC50 given in µM.

Answered cases to consult:
CC1CCCCN1CCN1CCC(NC(=O)c2nn(C)c3nc(N4CCCCCC4)ccc23)CC1 (stereo not shown) [compound 1425] :: -0.30
O=C(NC1CCCNC1)c1n[nH]c2nc(OC3CCCCC3)ccc12 (stereo not shown) [compound 728] :: 0.90
CN(CC1CCCCC1)c1ccc2c(C(=O)NC3CCNCC3)nn(C)c2n1 [compound 867] :: -0.03

According to the records, this molecule C[C@@H]1CCCN1CCN1CCC(NC(=O)c2nn(C)c3nc(N4CCCCCC4)ccc23)CC1 [compound 1424] displays log10 of EC50 of -0.10

Record CCC(CC)Oc1ccc2c(C(=O)NC3CCNCC3)nn(C)c2n1 [compound 816] , field log10 of EC50: 0.38

The measured log10 of EC50 associated with Cn1nc(NC(=O)C2CCCNC2)c2ccc(N3CCCCCC3)nc21 (stereo not shown) [compound 1036] reads 0.94

get_value(item= Cn1nc(C(=O)NC2CCN(CC3CCCCC3)CC2)c2ccc(N(Cc3ccccc3)C3CCCCCC3)nc21 [compound 1184] , readout=log10 of EC50) returns -0.77

Per the records, this molecule ( O=C(NC1CCNCC1)c1nnc2n(Cc3ccc(Cl)cc3)c(N3CCCCCC3)ccc1-2 [compound 709] ) has log10 of EC50 equal to 0.94

Reported log10 of EC50 of Cn1nc(-c2nnc(C3CCN(CC4CCCCC4)C3)o2)c2ccc(N3CCCCCCC3)nc21 (stereo not shown) [compound 1365] : 0.41

Recorded result, Cn1nc(CN[C@H]2CCNC2)c2ccc(N3CCCCCC3)nc21 [compound 908] , log10 of EC50: 0.94

Please fill in: log10 of EC50 reported for CC1CCCN1CCCc1nn(C)c2nc(N3CCCCCCC3)ccc12 (stereo not shown) [compound 1452] = 0.08

Just so you know, measured log10 of EC50 for Cn1nc(C(=O)NC2CCN(CCN3CCCCC3CO)CC2)c2ccc(N3CCCCCC3)nc21 (stereo not shown) [compound 1559] came out at 0.26

The reported value for CCCN1CCC(NC(=O)c2nn(C)c3nc(N4CCCCCC4)ccc23)CC1 [compound 1596] in terms of log10 of EC50 is 0.15

* * *

As shown below, each of these compounds has a reported concentration at 0.25 h value.
experimental details: In vivo rat pharmacokinetic studies
experimental conditions: liver, 20 mg/kg; rat, PO 20 mpk, 0.25 h; read-out: Liver
All answers are understood in ng/g, so give the number only.

Solved cases (2 shown):
CC(C)N1CCC(NC(=O)c2nn(C)c3nc(N4CCCCCC4)ccc23)CC1 [EBP1604] :: 915
Cn1nc(C(=O)NC2CCN(CCN3CCCCC3)CC2)c2ccc(N3CCCCCC3)nc21 [EBP1047] :: 382

Please look at the following compound next.
So, CCN1CCC(NC(=O)c2nn(C)c3nc(N4CCCCCC4)ccc23)CC1 [EBP1595] ? Its concentration at 0.25 h was 1900
